# key: entry, value: molar heat capacity at constant pressure
- testName: molar heat capacity at constant pressure
- setupConditions: 298.15 K; 101.33 kPa; Crystal; Small sample (50 mg) DSC
Numbers after ± are expanded uncertainties.
Dear colleague, please send the value followed by its unit.

O=C[C@@H](O)[C@@H](O)[C@H](O)[C@H](O)CO [D-mannose] ... 206.6 ± 6.1 J/K/mol
CC(=O)N[C@@H](C=O)[C@@H](O)[C@H](O)[C@H](O)CO [N-acetyl-D-glucosamine] ... 276.9 ± 6 J/K/mol
O=C[C@H](O)[C@H](O)[C@H](O)CO [D-ribose] ... 183.2 ± 3.7 J/K/mol
OC[C@H]1OC(O)C[C@@H](O)[C@@H]1O (stereo partly drawn) [2-deoxy-D-glucose] ... 200.2 ± 5.9 J/K/mol
OC[C@H]1O[C@H](O)[C@H](O)[C@@H](O)[C@@H]1O [α-D-glucose] ... 219.9 ± 6.1 J/K/mol

Quick one: molar heat capacity at constant pressure for CO[C@H]1O[C@H](CO)[C@@H](O)[C@H](O)[C@H]1O [methyl-α-D-glucopyranoside] ? 233.7 ± 4.5 J/K/mol
